test system: Rattus norvegicus; test: Stimulation of prostate weight in castrated immature Sprague-Dawley rat at 2 mg/day, po after 5 days; type: functional, Prostate gland
Activity: recorded values

compound	reportedRelation	Activity / %
CC1(C(=O)Nc2ccc(Br)c(C(F)(F)F)c2)CC(C(F)(F)F)=NN1 (stereo not given)	=	12
CC1(C(=O)Nc2ccc(Cl)c(C(F)(F)F)c2)CC(C(F)(F)F)=NN1 (stereo not given)	<	10
CC1(C(=O)Nc2ccc(C#N)c(C(F)(F)F)c2)CC(c2ccc(F)cc2)=NO1 (stereo not given)	<	10
CC1=NNC(C)(C(=O)Nc2ccc(C#N)c(C(F)(F)F)c2)C1 (stereo not given)	=	29
CC1(C(=O)Nc2ccc(C#N)c(C(F)(F)F)c2)CC(C(F)(F)F)=NN1C(=O)C(F)(F)F (stereo not given)	=	30
CC(=O)Nc1ccc(C2=NNC(C)(C(=O)Nc3ccc(Cl)c(C(F)(F)F)c3)C2)cc1 (stereo not given)	<	10
CCCC1(C(=O)Nc2ccc(C#N)c(C(F)(F)F)c2)CC(C(F)(F)F)=NN1 (stereo not given)	<	10
CC1(C(=O)Nc2ccc(C#N)c(C(F)(F)F)c2)CC(c2ccc(F)cc2)=NN1 (stereo not given)	=	20
CC1(C(=O)Nc2ccc(C#N)cc2)CC(C(F)(F)F)=NN1 (stereo not given)	<	10
CCN1N=C(C)CC1(C)C(=O)Nc1ccc(C#N)c(C(F)(F)F)c1 (stereo not given)	=	18
CC1=NOC(C)(C(=O)Nc2ccc(C#N)c(C(F)(F)F)c2)C1 (stereo not given)	<	10
CC(=O)Nc1ccc(C2=NN(C)C(C)(C(=O)Nc3ccc(C#N)c(C(F)(F)F)c3)C2)cc1 (stereo not given)	<	10
CC1(C(=O)Nc2cc(C(F)(F)F)c(C#N)cc2I)CC(C(F)(F)F)=NN1 (stereo not given)	=	47
CO/C(=N\c1ccc(C#N)c(C(F)(F)F)c1)C1(C)CC(C(F)(F)F)=NN1 (stereo not given)	=	30
CC(=O)Nc1ccc(C2=NNC(C)(C(=O)Nc3ccc([N+](=O)[O-])c(C(F)(F)F)c3)C2)cc1 (stereo not given)	=	15
COc1cc(C#N)c(C(F)(F)F)cc1NC(=O)C1(C)CC(C(F)(F)F)=NN1 (stereo not given)	=	18
CC1=NNC(C(=O)Nc2ccc(C#N)c(C(F)(F)F)c2)(C(F)(F)F)C1 (stereo not given)	=	46
CCCC1=NNC(C)(C(=O)Nc2ccc(C#N)c(C(F)(F)F)c2)C1 (stereo not given)	<	10
CCOC(=O)C1=NNC(C)(C(=O)Nc2ccc([N+](=O)[O-])c(C(F)(F)F)c2)C1 (stereo not given)	<	10
CCC1=NNC(C)(C(=O)Nc2ccc(C#N)c(C(F)(F)F)c2)C1 (stereo not given)	<	10
